test system: NCI-H322M lung; experiment: NCI-60 one-dose screen, 48 h; conditions: 10 µM unless noted
The panel holds about 83,000 compounds, 20% with a hit somewhere; the sample as a whole holds those more often. Active and inactive are the calls of the source. How the source made its calls: active means growth percent below 10; inactive means the rest.
Reply using exactly one outcome from TRUE (active), FALSE (inactive)

Worked set:
Lookup: For this molecule, state the assay outcome: "CC(=O)Nc1cccc(Nc2nccc(N[C@@H](C)c3ccccc3)n2)c1"
Found: FALSE

Lookup: For this molecule, state the assay outcome: "Cn1cc(-c2nc(N)nnc2-c2c[nH]c3ccc(F)cc23)c2cccnc21"
Found: FALSE

Lookup: For this molecule, state the assay outcome: "N#Cc1c(-c2ccc(Br)cc2)nc2n[nH]c(-c3ccc(Br)cc3)c2c1-c1ccc(F)cc1"
Found: FALSE

Further cases:
Lookup: For this molecule, state the assay outcome: "N#Cc1c(-c2ccccc2Cl)cc(-c2ccc3ccccc3c2)[nH]c1=O"
Found: FALSE

Lookup: For this molecule, state the assay outcome: Cc1sc(C(NC(=O)OCCn2c([N+](=O)[O-])cnc2C)C(F)(F)Cl)nc1-c1ccc(OC(F)(F)F)cc1 (stereo unspecified)
Found: TRUE

Lookup: For this molecule, state the assay outcome: "O=c1oc2ccccc2cc1-c1csc(N=Nc2c(O)[nH]c3ccc(Cl)cc23)n1"
Found: FALSE

Lookup: For this molecule, state the assay outcome: "O=C(Nc1ccc(C(F)(F)F)cc1)Nc1ccc2oc(=O)ccc2c1"
Found: FALSE

Lookup: For this molecule, state the assay outcome: "O=C(O)c1cccc(-c2ccc(/C=N/NC(=O)c3[nH]c4ccc(Br)cc4c3-c3ccccc3)o2)c1"
Found: FALSE

Lookup: For this molecule, state the assay outcome: COc1c(F)ccc(C(=O)Nc2ccc3nc(NC(=O)C4CCCN(S(=O)(=O)c5ccc(Br)c(F)c5)C4)sc3c2)c1F (stereo unspecified)
Found: FALSE

Lookup: For this molecule, state the assay outcome: Cc1cccc(NC(=O)[C@]23CCC(C)(C)CC2C2=CCC4[C@@]5(C)C[C@@H](O)[C@H](O)[C@@](C)(CO)C5CC[C@@]4(C)[C@]2(C)CC3)c1 (stereo partly specified)
Found: FALSE

Lookup: For this molecule, state the assay outcome: COc1cc(C2CC(c3ccc(S(=O)(=O)NCCNc4nc(Nc5ccc(F)cc5)nc(N(C)C)n4)cc3)=Nc3c(N)nc(N)nc3N2)cc(OC)c1OC (stereo unspecified)
Found: FALSE

Lookup: For this molecule, state the assay outcome: "Cc1cc(C)cc(NC(=O)Cn2cc(COn3nnc4ccccc43)nn2)c1"
Found: FALSE

Lookup: For this molecule, state the assay outcome: "CCN1C(=O)/C(=N\N=C(/C)c2ccc3c(c2)Nc2ccccc2S3)c2cc(Cl)ccc21"
Found: FALSE

Lookup: For this molecule, state the assay outcome: "O=C1c2c(c3c4cc(F)ccc4oc3c3[nH]c4ccc(Br)cc4c23)C(=O)N1O"
Found: FALSE

Lookup: For this molecule, state the assay outcome: "C#C[C@]1(O)CC[C@H]2[C@@H]3CC=C4c5sc(-c6ccc([N+](=O)[O-])cc6)nc5CC[C@]4(C)[C@H]3CC[C@@]21C"
Found: FALSE

Lookup: For this molecule, state the assay outcome: "Cc1cnc(C(=O)NNc2nc3cc(F)ccc3n3c(C(=O)N4CC5CC(C4)N5)ccc23)cn1"
Found: FALSE

Lookup: For this molecule, state the assay outcome: "c1ccc(-c2csc(Nc3cccc(Nc4nc(-c5ccccc5)cs4)c3)n2)cc1"
Found: FALSE

Lookup: For this molecule, state the assay outcome: "COc1ccc(C(=O)Nc2n[nH]c(Nc3ccccc3)c2C#N)cc1"
Found: FALSE

Lookup: For this molecule, state the assay outcome: COc1cc2c(c(OC)c1OC)C(=O)CC(c1cccc(NC(=O)c3cccc(NC(=O)[C@H](C)NC(=O)OC(C)(C)C)c3)c1)O2 (stereo partly specified)
Found: FALSE

Lookup: For this molecule, state the assay outcome: "CCN1CCN(Cc2ccc(C(=O)Nc3cccc(C#Cc4cccc5[nH]nc(N)c45)c3)cc2C(F)(F)F)CC1"
Found: TRUE
